I'd appreciate it if you could supply IC50 values for the items below.
target.entity: Vps34 (Homo sapiens)
Sequence (Q8NEB9 whole entry, species assumed): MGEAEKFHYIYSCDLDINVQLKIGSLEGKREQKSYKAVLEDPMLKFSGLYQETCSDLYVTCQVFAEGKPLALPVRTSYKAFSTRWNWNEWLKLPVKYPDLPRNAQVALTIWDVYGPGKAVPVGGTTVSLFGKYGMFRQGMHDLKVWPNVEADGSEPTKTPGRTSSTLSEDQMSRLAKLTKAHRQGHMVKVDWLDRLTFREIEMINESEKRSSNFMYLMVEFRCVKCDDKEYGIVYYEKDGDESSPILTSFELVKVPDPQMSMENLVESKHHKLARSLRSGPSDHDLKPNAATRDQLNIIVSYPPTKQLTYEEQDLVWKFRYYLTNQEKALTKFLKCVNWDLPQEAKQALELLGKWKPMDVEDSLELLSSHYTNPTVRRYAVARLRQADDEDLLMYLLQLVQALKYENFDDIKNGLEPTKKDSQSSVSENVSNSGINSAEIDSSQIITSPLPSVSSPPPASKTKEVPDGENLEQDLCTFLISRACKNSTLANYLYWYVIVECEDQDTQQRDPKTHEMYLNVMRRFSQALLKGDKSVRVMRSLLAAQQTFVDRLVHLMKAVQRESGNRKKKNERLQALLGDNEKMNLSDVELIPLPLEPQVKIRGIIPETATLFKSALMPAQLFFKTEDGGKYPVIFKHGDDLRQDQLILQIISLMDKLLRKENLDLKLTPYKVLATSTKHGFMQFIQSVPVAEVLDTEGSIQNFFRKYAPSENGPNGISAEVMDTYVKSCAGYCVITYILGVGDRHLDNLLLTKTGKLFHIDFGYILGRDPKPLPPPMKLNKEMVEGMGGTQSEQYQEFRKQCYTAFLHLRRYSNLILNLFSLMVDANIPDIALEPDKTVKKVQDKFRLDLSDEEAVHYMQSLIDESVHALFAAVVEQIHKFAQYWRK
experimental.details: Kinase Glo Luminescent Kinase Assay (Kglo), assay C
Format: biochemical
particulars: read-out: Assay C VPS34 IC50

Example results:
[
  {
    "molecule": "Cc1ccc(S(=O)(=O)NCC2(C)COC2)cc1-c1cnc(N)c(-n2cncn2)n1",
    "IC50": "> 9.1 µM"
  },
  {
    "molecule": "Cc1ccc(S(=O)(=O)NOCC(C)C)cc1-c1cnc(N)c(-n2cncn2)n1",
    "IC50": "> 10 µM"
  }
]

Would you mind giving IC50 for every molecule in the list below?
1. Cc1ccc(S(=O)(=O)NCC(N)=O)cc1-c1cnc(N)c(-n2cncn2)n1
2. Cc1ccc(S(=O)(=O)NCC2CCCOC2)cc1-c1cnc(N)c(-n2cncn2)n1 (centres unmarked)
3. Cc1ccc(S(=O)(=O)NCCC(C)(C)O)cc1-c1cnc(N)c(-c2ccc(C3CC3)s2)n1
4. Cc1cc(-c2nc(-c3cc(S(=O)(=O)N[C@H]4CC[C@@H](O)CC4)ccc3C)cnc2N)ccn1
5. Cc1ccc(S(=O)(=O)NOC2CCOC2)cc1-c1cnc(N)c(-n2cncn2)n1 (centres unmarked)
6. COc1nc(-c2nc(-c3cc(S(=O)(=O)NCCC(C)(C)O)ccc3C)cnc2N)cs1

OUT:
1. > 9.55 µM
2. > 10 µM
3. > 9.1 µM
4. > 9.1 µM
5. > 10 µM
6. > 10 µM

---

target.entity: mTOR (Homo sapiens, UniProt P42345)
experimental.details: Lanthascreen kinase binding assay, assay G
particulars: read-out: Assay G mTOR IC50
I'd appreciate it if you could supply IC50 values for the items below.

Example results:
[
  {
    "compound": "Cc1cc(-c2nc(-c3cc(S(=O)(=O)NCCCCCO)ccc3C)cnc2N)ccn1",
    "IC50": "> 9.1 µM"
  },
  {
    "compound": "Cc1ccc(S(=O)(=O)NCCC(C)(C)O)cc1-c1cnc(N)c(-c2cnn(CCN3CCOCC3)c2)n1",
    "IC50": "> 10 µM"
  },
  {
    "compound": "CCOc1ccc(-c2nc(-c3cc(S(=O)(=O)NCCC(C)(C)O)ccc3C)cnc2N)cn1",
    "IC50": "> 9.1 µM"
  }
]

So for Cc1ccc(S(=O)(=O)NCCC2(O)CCCCC2)cc1-c1cnc(N)c(-n2cncn2)n1 , the logged IC50 turned out to be > 10 µM

---

target.entity: PI 3-kinase delta (Homo sapiens)
Sequence (O00329 whole entry): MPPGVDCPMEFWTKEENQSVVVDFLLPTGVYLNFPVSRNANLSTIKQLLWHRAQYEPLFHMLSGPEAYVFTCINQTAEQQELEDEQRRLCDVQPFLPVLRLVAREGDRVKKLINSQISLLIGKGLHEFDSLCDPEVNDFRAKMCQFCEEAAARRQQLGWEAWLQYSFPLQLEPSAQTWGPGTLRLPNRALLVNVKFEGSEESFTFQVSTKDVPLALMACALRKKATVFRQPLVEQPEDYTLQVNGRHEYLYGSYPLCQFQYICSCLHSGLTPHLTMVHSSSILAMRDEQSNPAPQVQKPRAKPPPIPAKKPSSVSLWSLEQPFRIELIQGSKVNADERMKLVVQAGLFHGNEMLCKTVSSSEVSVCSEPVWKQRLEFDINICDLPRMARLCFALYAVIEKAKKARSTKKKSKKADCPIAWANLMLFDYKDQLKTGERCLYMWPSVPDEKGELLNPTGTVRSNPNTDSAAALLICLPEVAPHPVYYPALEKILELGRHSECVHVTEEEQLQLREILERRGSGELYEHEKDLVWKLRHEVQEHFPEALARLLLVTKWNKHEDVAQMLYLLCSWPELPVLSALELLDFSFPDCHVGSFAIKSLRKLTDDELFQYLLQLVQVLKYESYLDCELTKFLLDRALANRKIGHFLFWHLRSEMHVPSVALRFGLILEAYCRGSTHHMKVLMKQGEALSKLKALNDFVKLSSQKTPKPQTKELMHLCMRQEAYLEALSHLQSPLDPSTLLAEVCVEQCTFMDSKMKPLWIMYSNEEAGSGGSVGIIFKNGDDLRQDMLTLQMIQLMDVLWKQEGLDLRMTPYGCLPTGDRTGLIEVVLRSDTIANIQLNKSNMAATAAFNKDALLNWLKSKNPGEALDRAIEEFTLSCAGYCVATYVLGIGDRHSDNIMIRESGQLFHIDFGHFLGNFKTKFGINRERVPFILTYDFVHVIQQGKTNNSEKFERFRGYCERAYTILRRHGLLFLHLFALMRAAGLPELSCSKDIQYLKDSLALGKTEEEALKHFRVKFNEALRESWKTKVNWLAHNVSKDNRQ
Sequence (Q63787 whole entry partner): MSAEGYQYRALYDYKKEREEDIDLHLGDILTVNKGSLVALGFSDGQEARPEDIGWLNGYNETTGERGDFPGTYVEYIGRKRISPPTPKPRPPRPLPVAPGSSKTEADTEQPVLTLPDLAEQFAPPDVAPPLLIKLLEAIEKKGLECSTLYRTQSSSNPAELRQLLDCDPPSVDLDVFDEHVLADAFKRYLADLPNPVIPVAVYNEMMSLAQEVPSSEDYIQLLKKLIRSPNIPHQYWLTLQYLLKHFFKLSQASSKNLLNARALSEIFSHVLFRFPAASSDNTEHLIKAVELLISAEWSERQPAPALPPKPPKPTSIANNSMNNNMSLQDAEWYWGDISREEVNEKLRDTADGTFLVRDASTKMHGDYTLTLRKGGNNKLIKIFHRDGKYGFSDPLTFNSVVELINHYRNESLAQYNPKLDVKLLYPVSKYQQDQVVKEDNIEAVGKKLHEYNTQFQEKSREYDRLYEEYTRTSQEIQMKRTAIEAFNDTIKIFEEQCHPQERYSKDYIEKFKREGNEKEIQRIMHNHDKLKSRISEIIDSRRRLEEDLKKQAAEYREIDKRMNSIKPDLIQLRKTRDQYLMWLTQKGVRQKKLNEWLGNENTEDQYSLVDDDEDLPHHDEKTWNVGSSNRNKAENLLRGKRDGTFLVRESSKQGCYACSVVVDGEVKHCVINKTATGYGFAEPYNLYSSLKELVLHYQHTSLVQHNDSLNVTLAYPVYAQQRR
experimental.details: Cellular assay J1, p-Akt (S473) in Rat-1 cells, Surefire format
Type: cell-based
particulars: non-asterisked data: version J1 (Surefire format), Rat-1 cells; read-out: Assay J PI3Kδ IC50
The following ranges of IC50 define the classes used here: band A (below 1 µM), band B (1 µM to below 3 µM), band C (3 µM or more)

[
  {
    "compound": "Cc1ccc(S(=O)(=O)NCC2(CO)COC2)cc1-c1cnc(N)c(-c2cn(C)nc2C)n1 [Example 128]",
    "group.label": "band C"
  },
  {
    "compound": "Cc1cc(-c2nc(-c3cc(S(=O)(=O)NCC4(O)COC4)ccc3C)cnc2N)ccn1 [Example 129.32]",
    "group.label": "band C"
  },
  {
    "compound": "Cc1ccc(S(=O)(=O)N[C@H]2C[C@H](O)C2)cc1-c1cnc(N)c(-n2cncn2)n1 [Example 71a]",
    "group.label": "band C"
  },
  {
    "compound": "Cc1ccc(S(=O)(=O)NCCC(C)(C)O)cc1-c1cnc(N)c(-c2cnn(C)c2)n1 [Example 119.16]",
    "group.label": "band B"
  }
]

IN: Could you tell me which band Cc1ccc(S(=O)(=O)N[C@H]2CC[C@@H](O)CC2)cc1-c1cnc(N)c(-c2cnn(C)c2)n1 [Example 75] belongs to?
OUT: band C
